- TESTED TARGET: GST-cGB-PDE5 fusion protein (Homo sapiens, UniProt O76074)
- Sequence (O76074 46-539 limits assumed): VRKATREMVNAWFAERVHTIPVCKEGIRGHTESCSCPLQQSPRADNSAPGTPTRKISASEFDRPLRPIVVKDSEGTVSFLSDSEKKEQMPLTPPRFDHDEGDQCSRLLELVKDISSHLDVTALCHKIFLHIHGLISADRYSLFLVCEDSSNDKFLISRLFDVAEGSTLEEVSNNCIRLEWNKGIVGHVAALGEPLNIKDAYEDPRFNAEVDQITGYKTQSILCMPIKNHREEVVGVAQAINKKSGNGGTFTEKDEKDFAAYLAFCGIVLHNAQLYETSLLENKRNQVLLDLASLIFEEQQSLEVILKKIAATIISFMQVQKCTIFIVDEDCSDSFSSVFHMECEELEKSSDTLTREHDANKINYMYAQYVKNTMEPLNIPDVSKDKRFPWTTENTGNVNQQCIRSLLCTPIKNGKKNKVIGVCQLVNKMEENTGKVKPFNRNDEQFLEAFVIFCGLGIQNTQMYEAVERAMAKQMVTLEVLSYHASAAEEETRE
- METHOD: cGMP binding assay with GST-cGB-PDE5 fusion protein
- CONDITION NOTES: read-out: Kd of cGMP binding to GST-cGB-PDE5; two cGMP binding sites
EXPERIMENTAL READOUT: Kd (nM)

INSERT INTO measurements (molecule, experimental_readout, number) VALUES
  ('Nc1nc2c(ncn2[C@@H]2O[C@@H]3COP(=O)(O)O[C@H]3[C@H]2O)c(=O)[nH]1 [cGMP, cyclic 3′,5′-guanosine monophosphate]', 'Kd', 1600);

---

- Test system: PDE1
- METHOD: PDE inhibition: PDE1
- Format: biochemical
- CONDITION NOTES: similar protocols
pIC50: −log10 of the molar value. Counter-ions that a name gives are not always drawn.
EXPERIMENTAL READOUT: pIC50

INSERT INTO results (compound, number) VALUES
  ('CC1=C(CC(=O)NCc2ccccc2)c2cc(F)ccc2/C1=C\c1ccncc1 [Example 38, Hydrochloride]', 5.52);
